- Tested on: MS2 coat protein
- assay_text: apparent KD of MS2 coat protein; designed switch direction (-1 OFF switch, 1 ON switch): 1; higher = weaker reporter binding
- condition_info: Eterna round: R95; input ligand: microRNA oligo, concentration not stated
This section presents sequences with their documented apparent KD of MS2 coat protein values.
// units = nM; emit number, no label

UCUUGGUUUUUGCUCGUUUUUUGUGUUGAACAUGAGGAUCACCCAUGUAUUGUACAGUCCAAUUUAAUAAUGGUCCA [JMF 4] (puzzle: Sensor for hsa-mir-208a) = 27.9

(Q) Item AUUAAACAUGAGGAUCACCCAUGUCAACAAAGUCGAGGAUAUGGGCAUAUUAUCUUCUUUCCAGAAGGCGAAUAAU [salish99_ss1_r3_089] (puzzle: Same State 1) has what recorded apparent KD of MS2 coat protein?
(A) 136

(Q) Item AGUCCAGCCUAAGCUGGACAAAAGCAUGUACAUGAGGAUCACCCAUGUUCAUGUACAAGCUUUUUGCUCGUCUUAAG [Mat - hsa-mir-208a - Mod of JL - 65] (puzzle: Sensor for hsa-mir-208a) has what recorded apparent KD of MS2 coat protein?
(A) 18.7

(Q) Item AGUCCAGCGAAAGCUGGACAAAAGCAUGUACAUGAGGAUCACCCAUGUUCGUGUACAAGCUUUUUGCUCGUCUUAAA [JL mod - D95 - 5] (puzzle: Sensor for hsa-mir-208a) has what recorded apparent KD of MS2 coat protein?
(A) 14.6

(Q) Item AGUCCAGCCUAAGCUGGACAAAAGCAUGUACAUGAGGAUCACCCAUGUUCAUGUACAAGCUUUUUGCUCGUCAAAAG [Mat - hsa-mir-208a - Mod of JL - 68] (puzzle: Sensor for hsa-mir-208a) has what recorded apparent KD of MS2 coat protein?
(A) 19.6

(Q) Item UAUAAACAUGAGGAUCACCCAUGUAAUAAUAUGGGAGGAUAUCAGAAUGUAUUUAUGUAAUGAGAAGGCCUAAUAU [Mat - Same State 1 - Mod of Eli - D69] (puzzle: Same State 1) has what recorded apparent KD of MS2 coat protein?
(A) 122

(Q) Item GGUCCAGCCUGAGCUGGACAAAAGCAUGUACAUGAGGAUCACCCAUGUCAUGUACAAGCUUUUUGCUCGUCAUAAAU [Mat - hsa-mir-208a - 96] (puzzle: Sensor for hsa-mir-208a) has what recorded apparent KD of MS2 coat protein?
(A) 13.1

====

- System: MS2 coat protein
- assay_text: apparent KD of MS2 coat protein, switch ON state; designed switch direction (-1 OFF switch, 1 ON switch): 1; higher = weaker reporter binding
- condition_info: FMN input: 0 or 200 uM; Eterna round: R93 (includes R88 designs)
Mark FALSE for apparent KD of MS2 coat protein values under 20 nM, and TRUE for everything at or above.

Some solved entries appear below for comparison.
AAAAAACAUGAGGAUCACCCAUGUAAUAAAACGUCAGGAUAUUGAUUUUAUUAUUUAUUACAAGAAGGGACAAAAA [Same State 1 - Omei 1] = TRUE
AAAAGACAUGAGGAUCACCCAUGUCAAAAGACAUGAGGAUAUGUACAGACUUCGGUCUGUACAGAAGGCAUAAAAA [SS1 - 1060] = FALSE
AAAUAAAGGACUAAGGAUAUAUCACAUGAAACAUGAGGAUCACCCAUGUAAUAAUACAAAGGGUGAUAGAAGGUAGUCCACAAACA [Pariah 5 (MS2 Riboswitches - Same State 2)] = FALSE
AGAAGACAUGAGGAUCACCCAUGUGGGAUUAUGGGAGGAUAUACAAAGACGAGAGUCAGAGUAGAAGGCCUAGGAA [salish99-ss1-112(!!!!!)] = TRUE

Kindly review the next sequence as well.
(Q) Form field: apparent KD of MS2 coat protein at least 20 nM? Entry: AUUACAUAUAGUUAGGAUAUCAUAUGUAAGACAUGAGGAUCACCCAUGUCCUAAGAAUAGGUAAAUGAGAAGGAACAGUGAGUAU [JR_SS002_Sub419]
(A) FALSE
